Reference for the values: BindingDB's records for doi:10.1016/j.bmcl.2013.11.027

molecular target: Calcitonin gene-related peptide type 1 receptor/Receptor activity-modifying protein 1 (Homo sapiens, UniProt Q16602+O60894); test: Displacement of [125I]-hCGRP from human CALCRL/RAMP1 expressed in HEK293 cell membranes
Sequence (Q16602 whole entry): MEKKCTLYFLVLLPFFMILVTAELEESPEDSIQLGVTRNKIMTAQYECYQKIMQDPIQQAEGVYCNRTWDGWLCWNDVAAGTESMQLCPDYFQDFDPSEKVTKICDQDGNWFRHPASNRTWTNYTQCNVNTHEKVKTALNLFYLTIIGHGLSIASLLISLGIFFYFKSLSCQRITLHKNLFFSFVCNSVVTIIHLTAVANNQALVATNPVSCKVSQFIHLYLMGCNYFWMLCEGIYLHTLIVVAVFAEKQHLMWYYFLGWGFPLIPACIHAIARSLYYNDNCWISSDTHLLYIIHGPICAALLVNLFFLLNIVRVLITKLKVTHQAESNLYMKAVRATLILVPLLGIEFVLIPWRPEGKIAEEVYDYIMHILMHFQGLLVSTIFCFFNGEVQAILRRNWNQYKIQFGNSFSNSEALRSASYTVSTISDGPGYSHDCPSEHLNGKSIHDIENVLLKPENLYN
Sequence (O60894 whole entry): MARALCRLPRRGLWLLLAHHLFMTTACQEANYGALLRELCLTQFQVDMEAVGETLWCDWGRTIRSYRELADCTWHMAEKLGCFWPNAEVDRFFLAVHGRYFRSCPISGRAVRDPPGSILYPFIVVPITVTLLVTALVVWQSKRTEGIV
Would you kindly list Ki for each of these molecules?
Numbers only, in nM.

Cc1ccc([C@@H](C)N(C/C=C/c2cnc3c(c2)C[C@@]2(C3)C(=O)Nc3ncccc32)C(=O)C(C)(C)C)cc1F [US8552023, 13]	0.13

Attention now shifts to the item below.
Can you share its Ki? I mean this molecule: C[C@H](c1cc(F)cc(F)c1)N(C/C=C/c1cnc2c(c1)C[C@@]1(C2)C(=O)Nc2ncccc21)C(=O)C1(C(F)(F)F)CC1 [US8552023, 11]
0.05
